Listing of recorded inhibition of growth at 10 µM by entry.
test system: SK-MEL-5; experiment: Anticancer activity against human SK-MEL-5 cells assessed as cell growth inhibition at 10 uM incubated for 48 hrs by SRB assay relative to control; type: functional; conditions: read-out: GI

smilesData	inhibition of growth at 10 µM
Cc1nn(-c2ccccc2)cc1/C=N/Nc1nc(Nc2ccccc2)nc(Nc2ccc(S(N)(=O)=O)cc2)n1	144%
CN(C)c1ccc(/C=N/Nc2nc(Nc3ccccc3)nc(Nc3ccc(S(N)(=O)=O)cc3)n2)cc1	14%
NS(=O)(=O)c1ccc(Nc2nc(N/N=C/C=C/c3ccccc3)nc(Nc3ccccc3)n2)cc1	59%
Cc1ccc(/C=N/Nc2nc(Nc3ccccc3)nc(Nc3ccc(S(N)(=O)=O)cc3)n2)cc1	23%
NS(=O)(=O)c1ccc(Nc2nc(N/N=C/CCc3ccccc3)nc(Nc3ccccc3)n2)cc1	< 10%
CCCCc1nc(/C=N/Nc2nc(Nc3ccccc3)nc(Nc3ccc(S(N)(=O)=O)cc3)n2)c(Cl)[nH]1	24%
NS(=O)(=O)c1ccc(Nc2nc(N/N=C/c3cccs3)nc(Nc3ccccc3)n2)cc1	26%
NS(=O)(=O)c1ccc(Nc2nc(N/N=C/c3cccc4ccccc34)nc(Nc3ccccc3)n2)cc1	29%
NS(=O)(=O)c1ccc(Nc2nc(N/N=C/c3ccc([N+](=O)[O-])cc3)nc(Nc3ccccc3)n2)cc1	67%
NS(=O)(=O)c1ccc(Nc2nc(N/N=C/c3ccccn3)nc(Nc3ccccc3)n2)cc1	184%
NS(=O)(=O)c1ccc(Nc2nc(N/N=C/c3ccc(F)cc3)nc(Nc3ccccc3)n2)cc1	61%
NNc1nc(Nc2ccccc2)nc(Nc2ccc(S(N)(=O)=O)cc2)n1	< 10%
NS(=O)(=O)c1ccc(Nc2nc(N/N=C/c3ccc(C(F)(F)F)cc3)nc(Nc3ccccc3)n2)cc1	65%
NS(=O)(=O)c1ccc(Nc2nc(N/N=C/c3ccccc3)nc(Nc3ccccc3)n2)cc1	35%
NS(=O)(=O)c1ccc(Nc2nc(N/N=C/c3ccc(Cl)cc3)nc(Nc3ccccc3)n2)cc1	30%
NS(=O)(=O)c1ccc(Nc2nc(N/N=C/c3ccc4c(c3)OCO4)nc(Nc3ccccc3)n2)cc1	45%
NS(=O)(=O)c1ccc(Nc2nc(N/N=C/c3c[nH]c4ccccc34)nc(Nc3ccccc3)n2)cc1	60%
COc1ccc(/C=N/Nc2nc(Nc3ccccc3)nc(Nc3ccc(S(N)(=O)=O)cc3)n2)cc1	25%

---

tested on: 786-0; experiment: Anticancer activity against human 786-0 cells assessed as cell growth inhibition at 10 uM incubated for 48 hrs by SRB assay relative to control; assay type: functional; conditions: read-out: GI

smilesData	censoringSign	inhibition of growth at 10 µM [%]
NNc1nc(Nc2ccccc2)nc(Nc2ccc(S(N)(=O)=O)cc2)n1	<	10
NS(=O)(=O)c1ccc(Nc2nc(N/N=C/c3ccccc3)nc(Nc3ccccc3)n2)cc1	=	33
CN(C)c1ccc(/C=N/Nc2nc(Nc3ccccc3)nc(Nc3ccc(S(N)(=O)=O)cc3)n2)cc1	=	31
NS(=O)(=O)c1ccc(Nc2nc(N/N=C/c3cccs3)nc(Nc3ccccc3)n2)cc1	=	13
NS(=O)(=O)c1ccc(Nc2nc(N/N=C/c3cccc4ccccc34)nc(Nc3ccccc3)n2)cc1	=	56
NS(=O)(=O)c1ccc(Nc2nc(N/N=C/c3c[nH]c4ccccc34)nc(Nc3ccccc3)n2)cc1	=	58
NS(=O)(=O)c1ccc(Nc2nc(N/N=C/c3ccc4c(c3)OCO4)nc(Nc3ccccc3)n2)cc1	=	38
COc1ccc(/C=N/Nc2nc(Nc3ccccc3)nc(Nc3ccc(S(N)(=O)=O)cc3)n2)cc1	=	26
Cc1nn(-c2ccccc2)cc1/C=N/Nc1nc(Nc2ccccc2)nc(Nc2ccc(S(N)(=O)=O)cc2)n1	=	147
CCCCc1nc(/C=N/Nc2nc(Nc3ccccc3)nc(Nc3ccc(S(N)(=O)=O)cc3)n2)c(Cl)[nH]1	<	10
NS(=O)(=O)c1ccc(Nc2nc(N/N=C/c3ccc(F)cc3)nc(Nc3ccccc3)n2)cc1	=	41
NS(=O)(=O)c1ccc(Nc2nc(N/N=C/c3ccc([N+](=O)[O-])cc3)nc(Nc3ccccc3)n2)cc1	=	91
NS(=O)(=O)c1ccc(Nc2nc(N/N=C/c3ccc(Cl)cc3)nc(Nc3ccccc3)n2)cc1	=	59
